Target: cyclophilin
Assay: Cis-trans isomerase inhibitory activity (chymotrypsin-coupled Suc-AAPF-pNA cleavage, absorbance 390 nm)
Format: biochemical
Details: cyclophilin, chymotrypsin, Suc-AAPF-pNA; read-out: Test Example 1: cis-trans isomerase inhibitory activity (IC50)
pIC50: −log10 of the molar value.
For each entry below, report its pIC50 value.

Input line: I would be grateful if you could share the reported pIC50 for "CCCCOC(=O)c1ccccc1C=Cc1ccc(CC(C)(C)C)cn1" .
Output line: 6.70 to 7.70

Input line: I would be grateful if you could share the reported pIC50 for "CCCCCOC(=O)c1ccccc1C=C(C)c1ccc(CC(C)(C)C)cc1" .
Output line: 6.70 to 7.70

Input line: I would be grateful if you could share the reported pIC50 for "CCCCOC(=O)c1ccccc1C=C(C)c1ccc(CC(C)(C)C)cc1C" .
Output line: 6.70 to 7.70

Input line: I would be grateful if you could share the reported pIC50 for "N#CC(=Cc1ccccc1C(=O)O)c1ccc(Cc2ccccc2)cc1" .
Output line: ≥ 7.70

Input line: I would be grateful if you could share the reported pIC50 for "CC(C)(C)Cc1ccc(C(F)=Cc2ccccc2C(=O)OCc2ccccc2)cc1" .
Output line: ≥ 7.70

Input line: I would be grateful if you could share the reported pIC50 for "N#CC(=Cc1ccccc1N1CCCCC1)c1ccc([N+](=O)[O-])cc1" .
Output line: 5.70 to 6.70

Input line: I would be grateful if you could share the reported pIC50 for "N#CC(=Cc1ccccc1CCC1CCCCC1)c1ccc([N+](=O)[O-])cc1" .
Output line: ≥ 7.70

Input line: I would be grateful if you could share the reported pIC50 for "COc1ccccc1CCc1ccccc1C=C(C#N)c1ccc([N+](=O)[O-])cc1" .
Output line: 5.70 to 6.70

Input line: I would be grateful if you could share the reported pIC50 for "CCc1ccccc1C=C(C#N)c1ccc([N+](=O)[O-])cc1" .
Output line: 5.70 to 6.70

Input line: I would be grateful if you could share the reported pIC50 for "CCCCCc1ccc(C=Cc2ccccc2C(=O)OC)cc1" .
Output line: ≥ 7.70

Input line: I would be grateful if you could share the reported pIC50 for "COC(=O)c1ccccc1C=Cc1ccc(CC2CCCC2)cc1" .
Output line: 6.70 to 7.70

Input line: I would be grateful if you could share the reported pIC50 for CC(c1ccc(C(C#N)=Cc2ccccc2C(=O)O)cc1)C(C)(C)C (stereo not shown) .
Output line: 6.70 to 7.70

Input line: I would be grateful if you could share the reported pIC50 for "CCCCOC(=O)c1cc2ccccc2cc1C=Cc1ccc(CC(C)(C)C)cc1" .
Output line: 6.70 to 7.70

Input line: I would be grateful if you could share the reported pIC50 for "CC(C)(C)Cc1ccc(C=Cc2ccc(N)cc2C(=O)O)cc1" .
Output line: ≥ 7.70

Input line: I would be grateful if you could share the reported pIC50 for "CCCCOC(=O)c1ccccc1C=Cc1ccc(CC2CCCC2)cc1" .
Output line: 6.70 to 7.70

Input line: I would be grateful if you could share the reported pIC50 for "CC(C)(C)Cc1ccc(C(I)=Cc2ccccc2C(=O)OCC2CCCCC2)cc1" .
Output line: ≥ 7.70

Input line: I would be grateful if you could share the reported pIC50 for "CCCCOC(=O)c1ccccc1C=C(I)c1ccc(Cc2ccccc2)cc1" .
Output line: 6.70 to 7.70

Input line: I would be grateful if you could share the reported pIC50 for CC(C)(C)Cc1ccc(C=Cc2ccccc2C(=O)OCC2CCCCN2)cc1 (stereo not shown) .
Output line: 6.70 to 7.70

Input line: I would be grateful if you could share the reported pIC50 for "CCc1ccc(C(C#N)=Cc2ccccc2N(C)C)cc1" .
Output line: 5.70 to 6.70

Input line: I would be grateful if you could share the reported pIC50 for "Cc1ccc(CCc2ccccc2C=C(C#N)c2ccc([N+](=O)[O-])cc2)cc1" .
Output line: 6.70 to 7.70

Input line: I would be grateful if you could share the reported pIC50 for "CN(C)CCCOc1cccc(C=C(C#N)c2ccc([N+](=O)[O-])cc2)c1" .
Output line: 5.70 to 6.70

Input line: I would be grateful if you could share the reported pIC50 for "CC(C)OC(=O)c1ccccc1C=C(N)c1ccc(CC(C)(C)C)cc1" .
Output line: 6.70 to 7.70

Input line: I would be grateful if you could share the reported pIC50 for "CCCCOC(=O)c1ccccc1C=Cc1ccc(Cc2ccccc2)cc1" .
Output line: 6.70 to 7.70

Input line: I would be grateful if you could share the reported pIC50 for "CN(C)CCOc1ccccc1C=C(C#N)c1ccc([N+](=O)[O-])cc1" .
Output line: 5.70 to 6.70

Input line: I would be grateful if you could share the reported pIC50 for "CC(C)(C)C(=O)c1ccc(C(C#N)=Cc2ccccc2C(=O)O)cc1" .
Output line: 5.70 to 6.70

Input line: I would be grateful if you could share the reported pIC50 for "COc1ccccc1C=C(C#N)c1ccc(C(C)C)cc1" .
Output line: 5.70 to 6.70

Input line: I would be grateful if you could share the reported pIC50 for "CCCCOC(=O)c1ccccc1C=C(Br)c1ccc(CC(C)(C)C)cc1C" .
Output line: ≥ 7.70

Input line: I would be grateful if you could share the reported pIC50 for "CCCCOC(=O)c1ccccc1C=Cc1ccc(CC(C)(C)C)cc1CC" .
Output line: 6.70 to 7.70

Source of measurements: patent US11286228B2
